# Procedure Details: Human HepG2 cell viability assay in 384 well format
# Assay type: toxicity, cell-based
# Design: dose 125 nL, time 70.5 hour; concentration not given beside the values
# Experimental Conditions: HepG2 cells, read-out: Inhibition
Observed Property: cytotoxicity at 70.5 h (%)

Molecule: Cc1ccc(Cc2sc(NC(=O)C(C)S(C)(=O)=O)nc2C)cc1 (configuration not stated)
Numeric Readout: -3.98

Molecule: CC(C)N1CCC(c2ccnc3c(C(=O)N4CCOCC4)ncn23)CC1
Numeric Readout: -5.36

Molecule: COC(=O)CN(C(=O)c1ccc(-n2ccnc2)cc1)C1CC1
Numeric Readout: -1.73

Molecule: Cc1c(C(=O)N2CCC(c3nc(C)n4ccsc34)CC2)cnn1C
Numeric Readout: -4.61

Molecule: Cn1nnnc1SCC1COc2ccccc2O1 (configuration not stated)
Numeric Readout: 0.146

Molecule: O=C(c1ccc(Cl)o1)N1CCCC1c1nnc2n1CCCCC2 (configuration not stated)
Numeric Readout: 1.9

Molecule: Cc1ccc(CN2CCC(c3cnccn3)CC2)s1
Numeric Readout: -3.44

Molecule: CCOCc1nc(CSc2ccncc2)n(C)n1
Numeric Readout: 6.25

Molecule: O=C(COc1ccccc1)N1CCC[C@]2(C[C@@H](OCC3CC3)CO2)C1
Numeric Readout: 0.205

Molecule: COCCN1C(=O)CC[C@@H]2[C@H]1CCN2Cc1cccc(C#N)c1
Numeric Readout: -11.2

Molecule: CC(C)N(C)CC(=O)Nc1nccn1Cc1ccccc1Cl
Numeric Readout: -2.07

Molecule: CC(C)c1nc2n(n1)CC(NCc1nnc(C(C)C)o1)CC2 (configuration not stated)
Numeric Readout: -19.6

Molecule: CCOc1ccccc1C(CC(=O)Nc1ccccc1F)NC(C)=O (configuration not stated)
Numeric Readout: -6.84

Molecule: CCN(CC)CCn1cc(NC2CCN(C(C)(C)C)CC2)cn1
Numeric Readout: 5.68

Molecule: O=C(c1ncccn1)N1CCC[C@]2(C[C@@H](Oc3ncccc3F)CO2)C1
Numeric Readout: 21.8

Molecule: CCc1nc(CCNC(=O)Nc2ccc(C(=O)NC)cc2C)cs1
Numeric Readout: 13.7

Molecule: CO[C@@H]1CC[C@H]2[C@H]1OCCN2CCOCc1ccccc1
Numeric Readout: -12.3

====

# Procedure Details: Human HepG2 cell viability assay in 384 well format
# Type: toxicity, cell-based
# Set-up: dose 125 nL, time 70.5 hour; concentration not given beside the values
# Experimental Conditions: HepG2 cells, read-out: Inhibition
Measured cytotoxicity at 70.5 h, listed per entry.
Observed Property: cytotoxicity at 70.5 h (%)

Molecule: Cc1cc(C2CCCN2C(=O)NCc2ccccn2)on1 (centres undefined)
Observed Property: cytotoxicity at 70.5 h
Numeric Readout: -16.2
--
Molecule: CCc1noc(C(C)N2CCN(S(=O)(=O)N3CCCC3)CC2)n1 (centres undefined)
Observed Property: cytotoxicity at 70.5 h
Numeric Readout: -8.69
--
Molecule: COCCOc1ccnc(-c2noc([C@@H]3CCCN3CC(C)C)n2)c1
Observed Property: cytotoxicity at 70.5 h
Numeric Readout: -5.97
--
Molecule: COCCN1CC2(CCN(C(=O)c3ccno3)CC2)c2ccccc21
Observed Property: cytotoxicity at 70.5 h
Numeric Readout: 27.9

====

# Procedure Details: Human HepG2 cell viability assay in 384 well format
# Format: toxicity, cell-based
# Design: dose 125 nL, time 70.5 hour; concentration not given beside the values
# Experimental Conditions: HepG2 cells, read-out: Inhibition
# maps each entry to its cytotoxicity at 70.5 h
Observed Property: cytotoxicity at 70.5 h

Compound: Cc1nc(C2CCN(C(=O)COC(C)C)CC2)cc(N2CCOCC2)n1
Result: -8.64%

Compound: Cn1cc(C2CCCN2C(=O)COC2CCCCC2)cn1 (stereo not given)
Result: -11.1%

Compound: CC(=O)N1CC(c2ccnc(Nc3nccs3)n2)C1
Result: -12.9%

Compound: Cc1cccc(OCCC(=O)N2CCN(S(=O)(=O)N(C)C)CC2)c1C
Result: 20.1%

Compound: Cc1nc(C2(NCc3c(C)nn(C)c3N3CCOCC3)CCC2)no1
Result: 10.7%
